tested on: human oral epidermoid carcinoma cell line KB; assay: MTT growth inhibition assay, KB; format: cell-based; details: 96 hours incubation
assayMetric: pIC50
Quick note: pIC50 values are minus log10 of concentrations in mol/L.

INPUT: Sample Cc1cc2c(cn1)C(c1ccccc1F)=Nc1c(n[nH]c1C)N2 — what was its pIC50?
OUTPUT: 5.14

INPUT: Sample CCc1cc2c(cn1)C(c1ccccc1Cl)=Nc1c(n[nH]c1C)N2 — what was its pIC50?
OUTPUT: 6.21

INPUT: Sample Cc1cc2c(cn1)C(c1ccccc1Cl)=Nc1c(n[nH]c1C)N2 — what was its pIC50?
OUTPUT: 5.87
